Molecular target: Inward rectifier potassium channel 2 (Mus musculus) (UniProt P35561)
Sequence (P35561 whole entry, looked up): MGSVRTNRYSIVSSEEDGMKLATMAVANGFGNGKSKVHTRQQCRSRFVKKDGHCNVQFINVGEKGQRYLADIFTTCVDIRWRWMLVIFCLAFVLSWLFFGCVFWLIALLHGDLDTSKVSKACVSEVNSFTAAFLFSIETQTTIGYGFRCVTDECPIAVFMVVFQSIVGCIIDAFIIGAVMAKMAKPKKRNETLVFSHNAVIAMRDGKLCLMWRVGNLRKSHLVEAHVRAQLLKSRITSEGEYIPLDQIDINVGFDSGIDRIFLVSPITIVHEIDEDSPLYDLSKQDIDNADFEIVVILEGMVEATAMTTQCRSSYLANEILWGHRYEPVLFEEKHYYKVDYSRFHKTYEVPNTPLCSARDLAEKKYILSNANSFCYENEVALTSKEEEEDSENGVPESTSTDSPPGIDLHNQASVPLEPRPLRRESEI
Assay: mouse Kir2.1 channel inhibition, confirmation, selectivity assay for KCNK9 modulator project, cell-based, HEK293, thallium flux (AID 492993)
Conditions: Kir2.1 cells, FluxOR thallium flux fluorescence, at 10 µM
Hit rate of the full screen: of about 4,900 compounds, about 200 (4.1%) were called active. The list is a sample of the results.
endpoint name: inhibition

These solved cases illustrate the format of a correct answer.
>  <smiles entry>
Cc1ccc(Cn2ccc(NC(=O)c3cc(C(C)C)on3)n2)cc1

>  <endpoint name>
inhibition

>  <reading>
inactive

$$$$
>  <smiles entry>
COc1cccc(CN(C)C(=O)CC23CC4CC(CC(C4)C2)C3)c1OC

>  <endpoint name>
inhibition

>  <reading>
inactive

$$$$
>  <smiles entry>
CC1CCN(C(=O)c2ccc(CSc3ccc(Cl)cc3)cc2)CC1

>  <endpoint name>
inhibition

>  <reading>
inactive

$$$$
>  <smiles entry>
Cc1ccc(S(=O)(=O)N2CCN(C(=O)COC(=O)c3c(C)cc(C)cc3C)CC2)c(C)c1

>  <endpoint name>
inhibition

>  <reading>
inactive

$$$$

Next, consider the following molecule.
Data point: `O=C(Oc1ccc(Br)cc1C(=S)N1CCOCC1)c1cccc([N+](=O)[O-])c1` ; inhibition = inactive

Reference for the values: PubChem BioAssay AID492993
